Data provenance is PubChem BioAssay (NCI).

- System: HL-60(TB) leukemia
- Protocol: NCI-60 one-dose screen, 48 h (100 = growth as untreated, 0 = no growth, -100 = all killed)
- Applied conditions: 10 µM unless noted
This is part of a sample that, as a whole, favours compounds with a hit. Of some 83,000 tested, about 20% had one in any assay.
Recorded growth by entry
State just the number; it will be interpreted in %.

See these solved cases before continuing.
Molecule	Measurement target	growth (%)
O=C(c1ccccc1)C(O)C(Br)(CBr)c1ccccc1 (centres undefined)	HL-60(TB) leukemia	65.4
COc1ccc(-c2cn[nH]c2-c2ccc(OC)c(O)c2)cc1	HL-60(TB) leukemia	46.1
CCc1cccc2c3c(sc12)C(c1ccc(F)cc1)C(C#N)=C(N)O3 (centres undefined)	HL-60(TB) leukemia	1.86

Please look up its growth: CCN1Cc2c(/C=C/c3ccccc3)nc3ccc(OC)cc3c2N(c2cccc(Cl)c2)C1
23.6

Please look up its growth: CN1CCN(c2nc(-c3cccc4ccccc34)nc3sc4c(c23)CCCCCC4)CC1
91.6

====

Recorded growth by entry
- System: HL-60(TB) leukemia
- Protocol: NCI-60 one-dose screen, 48 h (100 = growth as untreated, 0 = no growth, -100 = all killed)
- Applied conditions: 10 µM unless noted
The panel holds about 83,000 compounds, 20% with a hit somewhere; the sample as a whole holds those more often. Active and inactive are the calls of the source. The calls were made as follows: active = growth percent below 10; inactive = the rest.

See these solved cases before continuing.
Molecule	Property measured	Measured value
C=C1C(=O)O[C@H]2[C@H]1CC/C(COC(=O)/C=C\C(=O)NCc1ccc(Cn3c(=O)sn(-c4ccc(Cl)cc4)c3=O)cc1)=C\CC[C@@]1(C)O[C@@H]21	growth	-52.5% (active)
O/N=C/c1ccc(O)cc1O	growth	96.9% (inactive)
O=C(Nc1nc(-c2ccccc2Cl)cs1)c1cc(-c2ccccc2)nc2ccc(Cl)cc12	growth	-3.8% (active)

Please look up its growth: N=C1C(c2nc(-c3ccc(Br)cc3)cs2)=C(O)CN1CC1CCCO1 (centres undefined)
98.3% (inactive)
